System under test: UniProt:P55210
Sequence (P55210 whole entry): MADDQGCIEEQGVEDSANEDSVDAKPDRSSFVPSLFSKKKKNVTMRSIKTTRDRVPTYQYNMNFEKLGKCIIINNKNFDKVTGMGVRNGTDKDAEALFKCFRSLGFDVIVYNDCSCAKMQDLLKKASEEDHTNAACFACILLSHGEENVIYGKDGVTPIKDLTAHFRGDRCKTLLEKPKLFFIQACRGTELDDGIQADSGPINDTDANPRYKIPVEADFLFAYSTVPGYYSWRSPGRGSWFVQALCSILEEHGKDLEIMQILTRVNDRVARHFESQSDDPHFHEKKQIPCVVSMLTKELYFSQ
Experimental details: Inhibition of human recombinant caspase 7 assessed as accumulation of cleaved fluorogenic 7-amino-4-methylcoumarin after 10 mins
pIC50: −log10 of the molar value.
Entries and their pIC50
Readout label: pIC50

1) COC[C@@H]1CCCN1S(=O)(=O)c1ccc2c(c1)C(=O)C(=O)N2Cc1ccc(C2CO2)cc1 (stereo not given in full)	8.72
2) COC[C@@H]1CCCN1S(=O)(=O)c1ccc2c(c1)C(=O)C(=O)N2CCC1CO1 (stereo not given in full)	7.17
3) COC[C@@H]1CCCN1S(=O)(=O)c1ccc2c(c1)C(=O)C(=O)N2C[C@H](O)CO	7.37
4) COC[C@@H]1CCCN1S(=O)(=O)c1ccc2c(c1)C(=O)C(=O)N2Cc1ccc(C(F)CBr)cc1 (stereo not given in full)	7.80
5) C=CCCCCCCCCCN1C(=O)C(=O)c2cc(S(=O)(=O)N3CCC[C@H]3COC)ccc21	6.95
6) COC[C@@H]1CCCN1S(=O)(=O)c1ccc2c(c1)C(=O)C(=O)N2Cc1ccc(OCC2CO2)cc1 (stereo not given in full)	8.62
7) C=Cc1ccc(CN2C(=O)C(=O)c3cc(S(=O)(=O)N4CCC[C@H]4COC)ccc32)cc1	8.14
8) COC[C@@H]1CCCN1S(=O)(=O)c1ccc2c(c1)C(=O)C(=O)N2CCCCCCCCCC1CO1 (stereo not given in full)	7.21
9) COC[C@@H]1CCCN1S(=O)(=O)c1ccc2c(c1)C(=O)C(=O)N2CCC(O)CO (stereo not given in full)	7.21
10) COC[C@@H]1CCCN1S(=O)(=O)c1ccc2c(c1)C(=O)C(=O)N2CCC(O)CF (stereo not given in full)	7.00

====

System under test: Caspase-7 (Homo sapiens)
Experimental details: Inhibition of human recombinant caspase 7 assessed as accumulation of cleaved fluorogenic 7-amino-4-methylcoumarin after 10 mins
Readout label: IC50

1. COC[C@@H]1CCCN1S(=O)(=O)c1ccc2c(c1)C(=O)C(=O)N2Cc1ccc(OCC(O)CF)cc1 (some centres undefined)	5 nM
2. C=CCN1C(=O)C(=O)c2cc(S(=O)(=O)N3CCC[C@H]3COC)ccc21	24 nM
3. COC[C@@H]1CCCN1S(=O)(=O)c1ccc2c(c1)C(=O)C(=O)N2C[C@H]1CO1	9 nM
4. COC[C@@H]1CCCN1S(=O)(=O)c1ccc2c(c1)C(=O)C(=O)N2Cc1ccc(C(F)CO)cc1 (some centres undefined)	7.6 nM
5. COC[C@@H]1CCCN1S(=O)(=O)c1ccc2c(c1)C(=O)C(=O)N2CC(F)(F)CBr	1660 nM
6. COC[C@@H]1CCCN1S(=O)(=O)c1ccc2c(c1)C(=O)C(=O)N2C[C@H](O)CF	349 nM
7. CN1C(=O)C(=O)c2cc(S(=O)(=O)N3CCC[C@H]3COc3ccccc3)ccc21	304 nM
8. C=CCOc1ccc(CN2C(=O)C(=O)c3cc(S(=O)(=O)N4CCC[C@H]4COC)ccc32)cc1	0.6 nM
9. C=CCCN1C(=O)C(=O)c2cc(S(=O)(=O)N3CCC[C@H]3COC)ccc21	50 nM

====

System under test: Caspase-3 (Homo sapiens)
Sequence (P42574 whole entry): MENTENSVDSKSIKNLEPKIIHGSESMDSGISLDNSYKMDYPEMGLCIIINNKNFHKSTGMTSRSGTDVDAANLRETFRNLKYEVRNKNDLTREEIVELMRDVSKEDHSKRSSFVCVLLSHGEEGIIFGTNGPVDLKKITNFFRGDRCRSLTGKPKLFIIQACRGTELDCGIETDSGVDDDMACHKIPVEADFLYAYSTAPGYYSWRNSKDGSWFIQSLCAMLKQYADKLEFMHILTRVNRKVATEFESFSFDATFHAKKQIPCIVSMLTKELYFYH
Experimental details: Inhibition of human recombinant caspase 3 assessed as accumulation of cleaved fluorogenic 7-amino-4-methylcoumarin after 10 mins
pIC50: −log10 of the molar value.
Readout label: pIC50

1) COC[C@@H]1CCCN1S(=O)(=O)c1ccc2c(c1)C(=O)C(=O)N2Cc1ccc(C2CO2)cc1 (stereo partly drawn)	8.18
2) COC[C@@H]1CCCN1S(=O)(=O)c1ccc2c(c1)C(=O)C(=O)N2C[C@H]1CO1	7.77
3) C=Cc1ccc(CN2C(=O)C(=O)c3cc(S(=O)(=O)N4CCC[C@H]4COC)ccc32)cc1	8.03
